B1: F1*; the commonest letter at each place (parent)
chain: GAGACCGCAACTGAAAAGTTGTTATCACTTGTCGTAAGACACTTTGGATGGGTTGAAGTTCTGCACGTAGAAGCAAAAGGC

variants of: B1; assay: fraction ligated after 30 min (ligated reads / total reads); higher = more ligase activity; conditions: with F1*sub RNA substrate (template-directed ligation), 42 °C
Outcome Measure: fraction ligated
Quick one: just the number, no unit, thanks!

T43G T44A    0.808
A36C A37C    0.821
T23C C40A    0.792
A24G A37C    0.796
T23G A27C    0.785
T44G A48T    0.782

Memo: T30A A36T , reported fraction ligated: 0.823

Memo: T35C A56G , reported fraction ligated: 0.782
